target: Intestinal-type alkaline phosphatase (Homo sapiens)
Sequence (P09923 whole entry): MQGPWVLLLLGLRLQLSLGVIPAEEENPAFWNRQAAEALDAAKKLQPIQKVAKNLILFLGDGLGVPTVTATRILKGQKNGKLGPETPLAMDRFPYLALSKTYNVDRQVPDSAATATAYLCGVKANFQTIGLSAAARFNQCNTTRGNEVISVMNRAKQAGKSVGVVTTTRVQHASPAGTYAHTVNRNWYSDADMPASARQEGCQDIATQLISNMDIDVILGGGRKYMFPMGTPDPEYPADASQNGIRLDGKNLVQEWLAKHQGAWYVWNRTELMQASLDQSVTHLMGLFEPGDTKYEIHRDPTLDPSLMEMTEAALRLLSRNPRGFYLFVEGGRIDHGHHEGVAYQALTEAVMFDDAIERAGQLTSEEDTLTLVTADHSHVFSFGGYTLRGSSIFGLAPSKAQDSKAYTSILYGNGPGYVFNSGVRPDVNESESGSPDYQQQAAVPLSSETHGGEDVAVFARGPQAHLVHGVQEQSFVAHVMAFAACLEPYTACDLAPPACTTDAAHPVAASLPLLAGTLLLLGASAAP
IC50 less than 4 µM is TRUE; IC50 greater than or equal to 4 µM is FALSE.

O=C1/C(=C/c2cccc(Cl)c2)NS(=O)(=O)c2ccccc21 = TRUE
O=C1/C(=C/c2ccc(F)cc2)NS(=O)(=O)c2ccccc21 = TRUE
COc1ccccc1/C=C1\NS(=O)(=O)c2ccccc2C1=O = TRUE
O=C1/C(=C/c2cccc(O)c2)NS(=O)(=O)c2ccccc21 = TRUE

**Q:** Does the reported IC50 of `O=C1/C(=C/c2cccc(F)c2)NS(=O)(=O)c2ccccc21` stay below 4 µM?
**A:** FALSE

**Q:** Further, for `Cc1ccccc1/C=C1\NS(=O)(=O)c2ccccc2C1=O` ?
**A:** TRUE

###

Target: Alkaline phosphatase, tissue-nonspecific isozyme (Homo sapiens, UniProt P05186)
Sequence (P05186 whole entry): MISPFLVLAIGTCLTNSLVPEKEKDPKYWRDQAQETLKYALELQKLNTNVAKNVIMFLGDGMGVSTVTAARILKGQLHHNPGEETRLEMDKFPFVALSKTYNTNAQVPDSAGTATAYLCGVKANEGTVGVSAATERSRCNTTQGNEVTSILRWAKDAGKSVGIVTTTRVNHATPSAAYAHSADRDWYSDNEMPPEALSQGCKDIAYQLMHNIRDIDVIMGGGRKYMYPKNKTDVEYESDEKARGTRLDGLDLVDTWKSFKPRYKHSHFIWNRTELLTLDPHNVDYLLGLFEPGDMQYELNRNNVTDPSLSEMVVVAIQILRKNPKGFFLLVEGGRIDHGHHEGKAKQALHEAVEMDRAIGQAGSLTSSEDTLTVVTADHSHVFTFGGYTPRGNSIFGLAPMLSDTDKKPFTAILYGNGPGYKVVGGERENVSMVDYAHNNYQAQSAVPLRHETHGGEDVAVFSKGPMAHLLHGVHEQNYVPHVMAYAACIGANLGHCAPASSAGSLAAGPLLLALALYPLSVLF
measured metric: pIC50
In plain terms, pIC50 is the concentration in mol/L turned into minus its base-10 logarithm.

Some solved entries appear below for comparison.
O=C1/C(=C/c2cccc(F)c2)NS(=O)(=O)c2ccccc21 = 5.50
O=C1/C(=C/c2ccc(Br)cc2)NS(=O)(=O)c2ccccc21 = 5.84

**Q:** Need pIC50 of `O=C1/C(=C/c2ccc(F)cc2)NS(=O)(=O)c2ccccc21` , thanks.
**A:** 5.87

**Q:** Further, for `COc1ccc(/C=C2\NS(=O)(=O)c3ccccc3C2=O)cc1` ?
**A:** 5.39

**Q:** Further, for `O=C1/C(=C/c2ccc(Cl)cc2)NS(=O)(=O)c2ccccc21` ?
**A:** 6.60

###

species on record: Homo sapiens; test: Selectivity index, ratio of IC50 for human TNAP expressed in African green monkey COS7 cell membranes to IC50 for human IAP expressed in African green monkey COS7 cell membranes
Response key: 1 means Ratio IC50 >= 0.4; -1 means Ratio IC50 < 0.4.

Solved cases (3 shown):
O=C1/C(=C/c2ccc(Cl)cc2Cl)NS(=O)(=O)c2ccccc21 = 1
O=C1/C(=C/c2cccc(Cl)c2)NS(=O)(=O)c2ccccc21 = 1
N[C@@H](Cc1ccccc1)C(=O)O = 1

**Q:** Evaluate `COc1ccccc1/C=C1\NS(=O)(=O)c2ccccc2C1=O` : Ratio IC50 at minimum 0.4?
**A:** 1

**Q:** Further, for `Cc1ccccc1/C=C1\NS(=O)(=O)c2ccccc2C1=O` ?
**A:** 1

**Q:** Further, for `O=C1/C(=C/c2cccc(O)c2)NS(=O)(=O)c2ccccc21` ?
**A:** 1

###

target: Intestinal-type alkaline phosphatase (Homo sapiens)
measured metric: pIC50
In plain terms, pIC50 is the concentration in mol/L turned into minus its base-10 logarithm.

O=C1/C(=C/c2ccc(Br)cc2)NS(=O)(=O)c2ccccc21 = 5.43
COc1ccc(/C=C2\NS(=O)(=O)c3ccccc3C2=O)cc1 = 5.82

// below: pIC50 requested for another molecule
**Q:** Give pIC50 (Intestinal-type alkaline phosphatase (Homo sapiens)) of the following molecule: `O=C1/C(=C/c2ccccc2Br)NS(=O)(=O)c2ccccc21`
**A:** 5.13

###

A collection of compounds and their measured Ratio IC50
species: Homo sapiens; test: Selectivity index, ratio of IC50 for human TNAP expressed in African green monkey COS7 cell membranes to IC50 for human IAP expressed in African green monkey COS7 cell membranes
# print the numeric value only

**Q:** Need Ratio IC50 of `O=C1/C(=C/c2ccccc2)NS(=O)(=O)c2ccccc21` , thanks.
**A:** 0.4

**Q:** Further, for `O=C1/C(=C/c2ccc(F)cc2)NS(=O)(=O)c2ccccc21` ?
**A:** 0.4

**Q:** Further, for `O=C1/C(=C/c2ccc(Cl)cc2)NS(=O)(=O)c2ccccc21` ?
**A:** 0.1

**Q:** Further, for `O=C1/C(=C/c2cccc(F)c2)NS(=O)(=O)c2ccccc21` ?
**A:** 0.3

**Q:** Further, for `COc1ccc(/C=C2\NS(=O)(=O)c3ccccc3C2=O)cc1` ?
**A:** 2.6

**Q:** Further, for `O=C1/C(=C/c2ccc(Br)cc2)NS(=O)(=O)c2ccccc21` ?
**A:** 0.4

**Q:** Further, for `O=C1/C(=C/c2c(F)cccc2F)NS(=O)(=O)c2ccccc21` ?
**A:** 0.1

###

species: Homo sapiens; assay: Selectivity index, ratio of IC50 for human TNAP expressed in African green monkey COS7 cell membranes to IC50 for human IAP expressed in African green monkey COS7 cell membranes
measured metric: Ratio IC50

Some solved entries appear below for comparison.
O=C1/C(=C/c2ccccc2Br)NS(=O)(=O)c2ccccc21 = > 1
COc1cccc(/C=C2\NS(=O)(=O)c3ccccc3C2=O)c1 = > 190

// below: Ratio IC50 requested for another molecule
**Q:** Need Ratio IC50 of `O=C1/C(=C/c2cccc(Br)c2)NS(=O)(=O)c2ccccc21` , thanks.
**A:** > 26
